biological target: ErbB2 insYVMA (HER2-YVMA, SEQ ID NO: 2) (Homo sapiens, UniProt P04626, INS775YVMA/P1170A); assay: biochemical; conditions: ErbB2 insYVMA enzyme assay; read-out: Assay 1 IC50
Sequence (P04626 with tags, fused parts or gaps INS775YVMA/P1170A limits assumed): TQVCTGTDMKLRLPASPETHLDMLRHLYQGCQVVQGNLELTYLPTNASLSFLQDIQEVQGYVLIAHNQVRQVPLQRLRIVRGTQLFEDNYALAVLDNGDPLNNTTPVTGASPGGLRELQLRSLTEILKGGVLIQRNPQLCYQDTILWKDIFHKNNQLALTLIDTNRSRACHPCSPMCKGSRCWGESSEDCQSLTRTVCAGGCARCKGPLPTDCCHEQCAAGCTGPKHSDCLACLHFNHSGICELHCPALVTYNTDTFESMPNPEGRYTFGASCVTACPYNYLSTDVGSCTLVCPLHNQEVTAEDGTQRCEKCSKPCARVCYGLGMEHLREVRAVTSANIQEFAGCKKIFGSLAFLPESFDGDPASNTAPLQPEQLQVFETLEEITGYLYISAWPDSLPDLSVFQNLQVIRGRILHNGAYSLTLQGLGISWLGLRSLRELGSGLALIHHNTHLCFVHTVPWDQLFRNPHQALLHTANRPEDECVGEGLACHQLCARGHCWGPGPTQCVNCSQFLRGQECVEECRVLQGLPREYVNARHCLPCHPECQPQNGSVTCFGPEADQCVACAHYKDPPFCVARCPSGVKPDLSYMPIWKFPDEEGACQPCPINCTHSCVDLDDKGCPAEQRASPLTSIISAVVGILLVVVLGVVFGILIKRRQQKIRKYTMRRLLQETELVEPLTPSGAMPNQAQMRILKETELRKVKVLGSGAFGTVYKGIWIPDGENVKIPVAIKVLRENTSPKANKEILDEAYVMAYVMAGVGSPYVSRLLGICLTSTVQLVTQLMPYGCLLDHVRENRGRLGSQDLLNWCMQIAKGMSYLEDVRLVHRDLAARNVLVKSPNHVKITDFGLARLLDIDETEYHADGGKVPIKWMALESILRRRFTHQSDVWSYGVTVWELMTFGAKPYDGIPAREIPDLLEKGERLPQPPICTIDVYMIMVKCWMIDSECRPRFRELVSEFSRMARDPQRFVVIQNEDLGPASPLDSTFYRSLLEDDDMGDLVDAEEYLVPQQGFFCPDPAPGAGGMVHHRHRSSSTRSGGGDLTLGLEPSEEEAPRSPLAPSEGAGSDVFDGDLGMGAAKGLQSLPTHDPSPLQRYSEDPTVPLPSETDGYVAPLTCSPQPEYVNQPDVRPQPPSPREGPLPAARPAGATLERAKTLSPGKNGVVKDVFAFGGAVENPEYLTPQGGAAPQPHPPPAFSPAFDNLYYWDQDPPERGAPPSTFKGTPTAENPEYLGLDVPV
Endpoint Name: pIC50
Note on pIC50: it is the negative log10 of concentration, concentration in mol/L.

Recorded pIC50, per entry:
>  <Molecule>
Cc1cc(Nc2ncnc3cnc(N4CCC4)nc23)ccc1Oc1ccc2c(c1)ncn2C [Example 36]

>  <Experimental Target>
ErbB2 insYVMA (HER2-YVMA, SEQ ID NO: 2) (Homo sapiens, UniProt P04626, INS775YVMA/P1170A)

>  <pIC50>
7.58

$$$$
>  <Molecule>
Cc1cc(Nc2ncnc3cnc(N4C[C@H](O)C5(CC5)C4)nc23)ccc1Oc1ccc2c(c1)ncn2C [Example 212]

>  <Experimental Target>
ErbB2 insYVMA (HER2-YVMA, SEQ ID NO: 2) (Homo sapiens, UniProt P04626, INS775YVMA/P1170A)

>  <pIC50>
7.89

$$$$
>  <Molecule>
Cc1cc(Nc2ncnc3cnc(N4CCCO4)nc23)ccc1Oc1ccc2c(c1)ncn2C [Example 178]

>  <Experimental Target>
ErbB2 insYVMA (HER2-YVMA, SEQ ID NO: 2) (Homo sapiens, UniProt P04626, INS775YVMA/P1170A)

>  <pIC50>
7.68

$$$$

Qu. Which measured pIC50 value corresponds to COC1CC2(C1)CN(c1ncc3ncnc(Nc4ccc(Oc5ccc6c(c5)ncn6C)c(C)c4)c3n1)C2 [Example 237] ?
Ans. 7.49
